Listed here: items and their measured Binding of serum 2 to looped/cyclic peptide (PEPSCAN-ELISA).
System: antibodies in sera from SARS patients (sera 1a, 1b, 2, 6, 37, 62, London, SARS-yellow, SARS-green)
Format: binding, human
The answer should be a number; do not append a unit.

Before answering, review these 4 worked examples.
# sequence IPLQASLPFGWLVIG ; its Binding of serum 2 to looped/cyclic peptide (PEPSCAN-ELISA) = 0.4

Recorded Binding of serum 2 to looped/cyclic peptide (PEPSCAN-ELISA) (sequence KSKNPLLYDANYFVC ): 0.4

The sequence listed as WKCKSKNPLLYDANY shows Binding of serum 2 to looped/cyclic peptide (PEPSCAN-ELISA) equal to 0.4

Entry under test: MRCWLCWKCKSKNPL . Its Binding of serum 2 to looped/cyclic peptide (PEPSCAN-ELISA) was 0.0

Attention now turns to another entry.
Field Binding of serum 2 to looped/cyclic peptide (PEPSCAN-ELISA) (entry LYLYALIYFLQCINA ) reads 0.2

====

Test system: antibodies in sera from SARS patients (sera 1a, 1b, 2, 6, 37, 62, London, SARS-yellow, SARS-green)
Format: binding, human
Design: unit not given here
ASSAY READOUT: Binding of serum 6 to looped/cyclic peptides of protein M of SARS-CoV Urbani
Please reply with the value in numeric form only.

Answered cases to consult:
Form: sequence = IAMACIVGLMWLSYF ; Binding of serum 6 to looped/cyclic peptides of protein M of SARS-CoV Urbani = 0.7

Recorded result, LPKEITVATSRTLSY , Binding of serum 6 to looped/cyclic peptides of protein M of SARS-CoV Urbani: 0.6

So, KEITVATSRTLSYYK ? Its Binding of serum 6 to looped/cyclic peptides of protein M of SARS-CoV Urbani was 1.3

Lab note: QLLEQWNLVIGFLFL gave Binding of serum 6 to looped/cyclic peptides of protein M of SARS-CoV Urbani of 0.5

What the record says about ELVIGAVIIRGHLRM : Binding of serum 6 to looped/cyclic peptides of protein M of SARS-CoV Urbani is 0.7

Please turn your attention to the following entry.
Documented Binding of serum 6 to looped/cyclic peptides of protein M of SARS-CoV Urbani of LKQLLEQWNLVIGFL : 0.8

====

System: antibodies in sera from SARS patients (sera 1a, 1b, 2, 6, 37, 62, London, SARS-yellow, SARS-green)
Type: binding, human
ASSAY READOUT: Binding of serum London to looped/cyclic peptides of protein M of SARS-CoV Urbani
Lab note: jot the number down without any unit.

# count of solved cases: 4
# sequence EITVATSRTLSYYKL ; its Binding of serum London to looped/cyclic peptides of protein M of SARS-CoV Urbani = 0.2

// sample AAVYRINWVTGGIAI , its Binding of serum London to looped/cyclic peptides of protein M of SARS-CoV Urbani was 0.2

Per the records, this sequence ( RIGNYKLNTDHAGSN ) has Binding of serum London to looped/cyclic peptides of protein M of SARS-CoV Urbani equal to 0.4

// Binding of serum London to looped/cyclic peptides of protein M of SARS-CoV Urbani lookup, sequence = QLLEQWNLVIGFLFL , result: 0.2

Others:
Per the records, this sequence ( NRYRIGNYKLNTDHA ) has Binding of serum London to looped/cyclic peptides of protein M of SARS-CoV Urbani equal to 0.4

# Binding of serum London to looped/cyclic peptides of protein M of SARS-CoV Urbani (sequence: RTRSMWSFNPETNIL ) is 0.2

The reported value for ITVATSRTLSYYKLG in terms of Binding of serum London to looped/cyclic peptides of protein M of SARS-CoV Urbani is 0.4

Looking up AIAMACIVGLMWLSY , I see its Binding of serum London to looped/cyclic peptides of protein M of SARS-CoV Urbani listed as 0.2
